# MEASURED_ON: SpCas9 (Streptococcus pyogenes serotype M1, UniProt Q99ZW2)
# Sequence (Q99ZW2 whole entry): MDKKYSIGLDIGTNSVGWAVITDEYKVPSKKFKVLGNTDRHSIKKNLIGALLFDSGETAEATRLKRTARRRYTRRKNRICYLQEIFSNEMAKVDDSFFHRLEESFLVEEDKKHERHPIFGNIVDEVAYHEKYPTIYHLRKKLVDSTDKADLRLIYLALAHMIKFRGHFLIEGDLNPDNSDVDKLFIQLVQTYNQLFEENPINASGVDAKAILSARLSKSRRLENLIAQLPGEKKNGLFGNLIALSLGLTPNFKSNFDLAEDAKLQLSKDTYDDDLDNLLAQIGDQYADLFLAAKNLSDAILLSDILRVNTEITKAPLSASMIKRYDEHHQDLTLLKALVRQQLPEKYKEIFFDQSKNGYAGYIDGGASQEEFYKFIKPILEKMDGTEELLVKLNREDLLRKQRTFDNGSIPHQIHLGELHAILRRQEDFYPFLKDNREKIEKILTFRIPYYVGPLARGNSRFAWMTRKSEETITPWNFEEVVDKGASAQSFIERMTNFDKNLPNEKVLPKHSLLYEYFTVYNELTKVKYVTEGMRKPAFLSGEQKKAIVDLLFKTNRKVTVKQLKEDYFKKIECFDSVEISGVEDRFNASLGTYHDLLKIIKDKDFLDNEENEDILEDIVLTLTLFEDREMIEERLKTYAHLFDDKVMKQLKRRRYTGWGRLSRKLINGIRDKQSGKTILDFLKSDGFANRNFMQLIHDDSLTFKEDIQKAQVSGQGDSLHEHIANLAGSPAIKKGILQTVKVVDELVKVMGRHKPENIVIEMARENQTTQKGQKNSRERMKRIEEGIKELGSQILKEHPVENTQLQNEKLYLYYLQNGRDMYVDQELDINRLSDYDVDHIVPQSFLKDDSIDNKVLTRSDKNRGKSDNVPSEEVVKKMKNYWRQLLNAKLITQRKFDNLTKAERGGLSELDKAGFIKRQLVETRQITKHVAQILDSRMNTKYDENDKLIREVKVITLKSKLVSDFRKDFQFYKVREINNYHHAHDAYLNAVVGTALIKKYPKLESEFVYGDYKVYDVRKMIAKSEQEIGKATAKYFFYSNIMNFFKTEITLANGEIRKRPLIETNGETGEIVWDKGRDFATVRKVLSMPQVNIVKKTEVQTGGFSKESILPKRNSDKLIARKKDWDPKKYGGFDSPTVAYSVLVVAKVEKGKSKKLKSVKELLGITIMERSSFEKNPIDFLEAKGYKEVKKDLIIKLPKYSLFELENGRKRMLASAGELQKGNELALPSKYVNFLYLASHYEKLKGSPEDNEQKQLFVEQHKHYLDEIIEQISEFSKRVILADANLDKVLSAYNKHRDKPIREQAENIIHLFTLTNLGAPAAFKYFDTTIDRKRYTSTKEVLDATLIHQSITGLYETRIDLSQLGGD
# METHOD: eGFP disruption assay, SpCas9, U2OS.eGFP.PEST cells
# Assay type: cell-based
# CONDITION_NOTES: eGFP assay, replicate 2
MEASURED_QUANTITY: % GFP+, Rep 2

INSERT INTO measurements (smiles_code, measured) VALUES
  ('O=C(CCS(=O)(=O)c1ccccc1)Nc1nc(-c2ccncc2)cs1', '83.95%'),
  ('Cc1nc2ccccc2c(C)c1CC(=O)N1CCN(c2ccc(O)cc2)CC1', '67.11%'),
  ('Cc1ccccc1C(=O)Nc1nc2ccc(S(N)(=O)=O)cc2s1', '84.09%'),
  ('O=C(CCS(=O)(=O)c1ccc(Cl)cc1)Nc1nc(-c2ccncc2)cs1', '86.24%'),
  ('NC1=C(c2nc3ccccc3s2)C(=O)CN1N=Cc1ccc(-c2ccc(S(=O)(=O)Nc3ncccn3)cc2)o1', '76.75%'),
  ('CCN1C(=O)c2cccc3cccc1c23', '66.59%'),
  ('O=C(CSc1nccn1-c1cccc(F)c1)N1CCN(c2ccc(O)cc2)CC1', '65.34%'),
  ('O=C(CCS(=O)(=O)c1ccc(Cl)cc1)Nc1nc(-c2ccccn2)cs1', '79.94%');

----------
Recorded measurements of Normalized Z rep1, one per entry
# MEASURED_ON: SpCas9 (Streptococcus pyogenes serotype M1)
# METHOD: eGFP disruption assay, SpCas9, U2OS.eGFP.PEST cells
# Format: cell-based
# CONDITION_NOTES: replicate 1; normalized, lower control about 0, upper control about 1
MEASURED_QUANTITY: Normalized Z rep1

INSERT INTO assay_data (smiles_code, measured) VALUES
  ('C=CC1=C(C(=O)O)N2C(=O)[C@@H](NC(=O)C(=NOCC(=O)O)c3csc(N)n3)[C@H]2SC1.O', 0.03),
  ('Cc1occc1-c1nnc2sc(-c3c[nH]c4ccccc34)nn12', 0.07),
  ('O=C(CCS(=O)(=O)c1ccc(Cl)cc1)Nc1nc(-c2ccncc2)cs1', 0.54);

----------
# MEASURED_ON: SpCas9 (Streptococcus pyogenes serotype M1, UniProt Q99ZW2)
# METHOD: Strand displacement assay (SDA) / cumulative activity assay (CAA), SpCas9 primary screen
# Type: biochemical
# CONDITION_NOTES: Primary Screen (150 min)
MEASURED_QUANTITY: Average Normalized Z score

INSERT INTO results (molecule, measured) VALUES
  ('O=C(NC1CCCC1)c1cccc(Oc2cc(-c3ccccc3)ncn2)c1', 0.27),
  ('CCCCC(=O)Nc1ccc(N2CCC(C(N)=O)(N3CCCCC3)CC2)c(C(=O)O)c1', 0.07),
  ('O=C(Nc1nc(-c2ccccc2)c(C(=O)c2ccccc2)s1)c1ccc2c(c1)OCCO2', 0.04),
  ('COc1ccc(OC)c(CNC(=O)c2ccc(Oc3ccnc(-c4cccc(F)c4)n3)cc2)c1', 0.29),
  ('O=C(NCC1CCCO1)c1ccc(Oc2ccnc(-c3ccc(F)cc3)n2)cc1 (centres unmarked)', 0.35),
  ('O=C(NC1CCCCC1)c1cccc(Oc2cc(-c3ccccc3)ncn2)c1', 0.40),
  ('O=C(CCS(=O)(=O)c1ccccc1)Nc1nc(-c2ccncc2)cs1', 0.06),
  ('Cc1ccc(-c2nc(CN3CCCC(C(=O)Nc4cc(C)ccc4O)C3)no2)cc1 (centres unmarked)', 0.12);
